Test system: NCI-H1915
assay comment: relative viability (nuclei count vs DMSO), 5 days (fraction); higher = more cells survive
cond: first compound 2.53 µM
readout label: relative viability

1) Oc1nc(-c2ccc(C(F)(F)F)cc2)nc2c1CSCC2 [XAV939] + CS(=O)(=O)CCNCc1ccc(-c2ccc3ncnc(Nc4ccc(OCc5cccc(F)c5)c(Cl)c4)c3c2)o1 [Lapatinib] (partner 2 µM) :: 0.993
2) C=C1C(=O)O[C@@H](CCCCCCCC)[C@@H]1C(=O)O [C-75] + CCNC(=O)c1noc(-c2cc(C(C)C)c(O)cc2O)c1-c1ccc(CN2CCOCC2)cc1 [Luminespib] (partner 0.01 µM) :: 0.717
3) C=C1C(=O)O[C@@H](CCCCCCCC)[C@@H]1C(=O)O [C-75] + CS(=O)(=O)CCNCc1ccc(-c2ccc3ncnc(Nc4ccc(OCc5cccc(F)c5)c(Cl)c4)c3c2)o1 [Lapatinib] (partner 2 µM) :: 0.917

----------
Test system: ChaGo-K-1
assay comment: relative viability (nuclei count vs DMSO), 5 days (fraction); higher = more cells survive
cond: first compound 0.253 µM
readout label: relative viability

1) Oc1nc(-c2ccc(C(F)(F)F)cc2)nc2c1CSCC2 [XAV939] + O=C(CCCCCCC(=O)Nc1ccccc1)NO [Vorinostat] (partner 1 µM) :: 0.707
2) Oc1nc(-c2ccc(C(F)(F)F)cc2)nc2c1CSCC2 [XAV939] + C[C@@H](Oc1cc(-c2cnn(C3CCNCC3)c2)cnc1N)c1c(Cl)ccc(F)c1Cl [Crizotinib] (partner 1 µM) :: 1.16
3) Oc1nc(-c2ccc(C(F)(F)F)cc2)nc2c1CSCC2 [XAV939] + N=C(N)NC(=N)NCCc1ccccc1 [Phenformin] (partner 250 µM) :: 0.476
4) Oc1nc(-c2ccc(C(F)(F)F)cc2)nc2c1CSCC2 [XAV939] + Nc1nc2[nH]cc(CCc3ccc(C(=O)N[C@@H](CCC(=O)O)C(=O)O)cc3)c2c(=O)[nH]1 [Pemetrexed] (partner 0.2 µM) :: 0.259
5) C=C1C(=O)O[C@@H](CCCCCCCC)[C@@H]1C(=O)O [C-75] + Cc1cc(Nc2cc(N3CCN(C)CC3)nc(Sc3ccc(NC(=O)C4CC4)cc3)n2)n[nH]1 [Tozasertib] (partner 0.1 µM) :: 0.223

----------
Test system: NCI-H1975
assay comment: relative viability (nuclei count vs DMSO), 5 days (fraction); higher = more cells survive
cond: first compound 0.08 µM
readout label: relative viability

1) C=C1C(=O)O[C@@H](CCCCCCCC)[C@@H]1C(=O)O [C-75] + Nc1ncn([C@H]2C[C@H](O)[C@@H](CO)O2)c(=O)n1 [Decitabine] (partner 2 µM) :: 0.373
2) Oc1nc(-c2ccc(C(F)(F)F)cc2)nc2c1CSCC2 [XAV939] + CC(=O)Nc1cccc(-n2c(=O)n(C3CC3)c(=O)c3c(Nc4ccc(I)cc4F)n(C)c(=O)c(C)c32)c1 [Trametinib] (partner 0.02 µM) :: 0.359
3) C=C1C(=O)O[C@@H](CCCCCCCC)[C@@H]1C(=O)O [C-75] + Cc1nc(Nc2ncc(C(=O)Nc3c(C)cccc3Cl)s2)cc(N2CCN(CCO)CC2)n1 [Dasatinib] (partner 0.075 µM) :: 0.364

----------
Tested on: NCI-H727
assay comment: relative viability (nuclei count vs DMSO), 5 days (fraction); higher = more cells survive
cond: first compound 0.03162 µM
readout label: relative viability

1) NC(=O)Nc1cc(-c2cccc(F)c2)sc1C(=O)N[C@H]1CCCNC1 [AZD7762] + Cc1cc(Nc2cc(N3CCN(C)CC3)nc(Sc3ccc(NC(=O)C4CC4)cc3)n2)n[nH]1 [Tozasertib] (partner 0.1 µM) :: 0.619
2) NC(=O)Nc1cc(-c2cccc(F)c2)sc1C(=O)N[C@H]1CCCNC1 [AZD7762] + O=C(CCCCCCC(=O)Nc1ccccc1)NO [Vorinostat] (partner 1 µM) :: 1.26
3) NC(=O)Nc1cc(-c2cccc(F)c2)sc1C(=O)N[C@H]1CCCNC1 [AZD7762] + Nc1ncn([C@H]2C[C@H](O)[C@@H](CO)O2)c(=O)n1 [Decitabine] (partner 2 µM) :: 1.11
4) NC(=O)Nc1cc(-c2cccc(F)c2)sc1C(=O)N[C@H]1CCCNC1 [AZD7762] + COc1cccc2cc(-c3nc([C@H]4CC[C@H](C(=O)O)CC4)n4ncnc(N)c34)[nH]c12 [OSI-027] (partner 0.5 µM) :: 0.791
5) NC(=O)Nc1cc(-c2cccc(F)c2)sc1C(=O)N[C@H]1CCCNC1 [AZD7762] + CC(C)C[C@H](NC(=O)[C@H](Cc1ccccc1)NC(=O)c1cnccn1)B(O)O [Bortezomib] (partner 0.002 µM) :: 0.878
